System: SF-539 CNS
Assay: NCI tumour cell line growth inhibition, 48 h; in the data active = GI50 below about 0.43 µM; inactive = the rest
In this exercise, the only acceptable responses are active, inactive

{"columns": ["molecule", "class.assignment"],
 "data": [
  ["CC1=CC2C(C(O)CC3(C)C2CC(C)C32OCOC23COCO3)C2(C)C/C(=C/O)C(=O)C=C12 (configuration not stated)", "inactive"]
]}

Q: Any idea what this test logged for "O=c1c2cc(C(F)(F)F)ccc2sc2c(NCCCNCCO)nc3ccccc3c12" ?
A: inactive

Q: Thanks! And "O=c1cccccc1[O-].O=c1cccccc1[O-].O=c1cccccc1[O-].[Eu+3]" ?
A: inactive

====

Tested on: UACC-62 melanoma
Experiment: NCI tumour cell line growth inhibition, 48 h
Each entry gets not satisfied if its TGI stays under 20 µM, and satisfied if its TGI is 20 µM or above.

Field: example entries. Status: answers known.
{"columns": ["compound", "class.assignment"],
 "data": [
  ["Cc1ccc(S(=O)(=O)NC(CCC(=O)NNc2ccccc2)C(=O)NNc2ccccc2)cc1 (centres undefined)", "satisfied"],
  ["C(/C=N/NC1=NCCCCN1)=N\\NC1=NCCCCN1", "satisfied"],
  ["CC1CC/C(=C\\c2ccc(F)cc2)C2=C1C(c1ccc(F)cc1)N1C(=O)CSC1=N2 (centres undefined)", "satisfied"],
  ["CN(Cc1cnc2nc(N)nc(N)c2n1)c1ccc(C(=O)NC23CC4CC(CC(C4)C2)C3)cc1", "not satisfied"],
  ["C=CO/N=[N+](\\[O-])N(CC)CC", "satisfied"]
]}

Now consider the entry below.
Q: # bool: TGI of Nc1cc2c(c3ccccc13)C(CCl)CN2C(=O)c1cc2cc(NC(=O)Nc3ccc4[nH]c(C(=O)N5CC(CCl)c6c5cc(N)c5ccccc65)cc4c3)ccc2[nH]1 (centres undefined) >= 20 µM
A: not satisfied

Reference source for all entries: PubChem BioAssay (NCI)
